Every entry's value here was drawn from patent US20220235011A1.

Biological target: Sirt6 (Homo sapiens)
Construct: purchased CycLex CY-1156V2
Experiment: Measurement of Sirt6 Activity (CycLex Sirt6 Deacetylase Fluorometric Assay Kit)
Assay type: biochemical
Settings: compound at 10 μM; fluorescence relative to the group without compound treatment (positive control group)
parameterMeasured: Sirt6 Activity (% activity, 10 μM) (% activity)

# count of solved cases: 3
1) CC(C)/[N+]([O-])=C\c1ccc(-c2nn(-c3ccc(F)cc3)c(=O)c3ccccc23)c(F)c1 = 106
2) C/[N+]([O-])=C\c1ccc(-c2nn(-c3ccc(F)cc3)c(=O)c3ccccc23)c(F)c1 = 143
3) Cl.N[C@H]1CCCCN(c2nn(-c3ccc(F)cc3F)c(=O)c3ccccc23)C1 = 244.1

(A) CC(C)(C(N)=O)c1cccc(-c2nn(C3CCCCC3)c(=O)c3ccccc23)c1
(B) COc1ccc(-c2nn(-c3ccc(F)cc3)c(=O)c3ccccc23)cc1/C=[N+](\[O-])C(C)(C)C
Which is greater in Sirt6 Activity (% activity, 10 μM), the first item A or the second item B ? Kindly give the label for the entry you pick.
A
(A: 277 % activity, B: 107 % activity)

* * *

Molecular target: Sirt6 (Homo sapiens, UniProt Q8N6T7)
Construct: purchased CycLex CY-1156V2
Sequence (Q8N6T7 whole entry): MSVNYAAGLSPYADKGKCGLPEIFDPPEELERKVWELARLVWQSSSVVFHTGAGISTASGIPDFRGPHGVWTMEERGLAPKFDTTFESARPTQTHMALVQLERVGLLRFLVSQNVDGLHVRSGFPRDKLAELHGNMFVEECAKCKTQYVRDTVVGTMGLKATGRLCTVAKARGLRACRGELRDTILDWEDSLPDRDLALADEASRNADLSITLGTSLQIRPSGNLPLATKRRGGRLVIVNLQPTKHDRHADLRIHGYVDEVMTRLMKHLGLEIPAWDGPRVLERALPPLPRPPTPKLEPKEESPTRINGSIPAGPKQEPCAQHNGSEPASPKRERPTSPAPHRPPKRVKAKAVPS
Test: Measurement of Sirt6 Activity (CycLex Sirt6 Deacetylase Fluorometric Assay Kit)
Assay type: biochemical
Details: compound at 10 μM; fluorescence relative to the group without compound treatment (positive control group)
parameterMeasured: Sirt6 Activity (% activity, 10 μM) (% activity)

Examples with their reported Sirt6 Activity (% activity, 10 μM) follow.
1. CCNS(=O)(=O)c1cccc(-c2nn(-c3ccccc3F)c(=O)c3ccccc23)c1 [Example 100] = 196
2. CCS(=O)(=O)Nc1cccc(-c2nn(-c3ccc(-c4ccccc4)cc3)c(=O)c3ccccc23)c1 [Example 64] = 106
3. CC(C)/[N+]([O-])=C/c1cccc(-c2nn(-c3ccccc3F)c(=O)c3ccccc23)c1 [Example 95] = 133
4. CS(=O)(=O)N(c1cc(-c2nn(-c3ccccc3)c(=O)c3ccccc23)ccc1Cl)S(C)(=O)=O [Example 18] = 114
5. CCS(=O)(=O)N[C@H]1CCCN(c2nn(-c3ccc(F)cc3)c(=O)c3ccccc23)C1 [Example 138] = 175.98

(P) CCS(=O)(=O)Nc1cccc(-c2nn(C3CCC(C)CC3)c(=O)c3ccccc23)c1 (centres unmarked) [Example 145]
(Q) CCNS(=O)(=O)c1cccc(-c2nn(-c3ccc(F)cc3F)c(=O)c3ccccc23)c1 [Example 92]
Lower Sirt6 Activity (% activity, 10 μM): P or Q ? Returns: label corresponding to the selected item.
P
